Sourced from ChEMBL document CHEMBL1137687

- run_description: Cytotoxicity against mock-infected human MT4 cells after 4 days by MTT assay
- Type: cell-based
Give measured CC50 at 96 h for each item. Keep answers brief.

Quick one: give me CC50 at 96 h for each item below, same order please.
1. Cc1ccc2sn(/N=C/c3ccc(O)c(O)c3)c(=O)c2c1
2. O=c1c2ccccc2sn1/N=C/c1ccccc1O
3. Cc1ccc2sn(/N=C/c3cccc(Cl)c3)c(=O)c2c1
4. O=c1c2ccccc2sn1/N=C/c1cccc(O)c1
5. Cc1ccc2sn(/N=C/c3ccccc3)c(=O)c2c1
6. O=c1c2ccccc2sn1/N=C/c1ccc(F)cc1
7. O=c1c2ccccc2sn1/N=C/c1ccccc1
8. COc1ccc(/C=N/n2sc3ccccc3c2=O)cc1

["49 µM", "18 µM", "59 µM", "15 µM", "44 µM", "17 µM", "17 µM", "19 µM"]

Quick one: give me CC50 at 96 h for each item below, same order please.
1. O=c1c2ccccc2sn1/N=C/c1cccc([N+](=O)[O-])c1
2. O=c1c2ccccc2sn1/N=C/c1ccccc1F
3. O=c1c2ccccc2sn1/N=C/c1ccc(O)cc1O
4. Cc1ccc2sn(/N=C/c3cccc([N+](=O)[O-])c3)c(=O)c2c1
5. O=c1c2ccccc2sn1/N=C/c1ccccc1Cl
6. O=c1c2ccccc2sn1/N=C/c1ccc(Cl)cc1
7. Cc1ccc2sn(/N=C/c3cccc(O)c3)c(=O)c2c1
8. O=c1c2ccccc2sn1/N=C/c1ccc2c(c1)OCO2

["> 100 µM", "20 µM", "21 µM", "> 100 µM", "47 µM", "26 µM", "16 µM", "17 µM"]

Quick one: give me CC50 at 96 h for each item below, same order please.
1. Cc1ccc2sn(/N=C/c3ccccc3[N+](=O)[O-])c(=O)c2c1
2. O=c1c2ccccc2sn1/N=C/c1ccco1

["> 100 µM", "18 µM"]

----------
- run_description: Cytotoxicity against mock-infected human MT4 cells after 4 days by MTT assay
- Format: cell-based
endpoint: CC50 at 96 h

Reference set, count: 5
O=c1c2ccccc2sn1/N=C/c1cccc(F)c1: 15 µM
CCCCCCCCCCC/C=N/n1sc2ccc(C)cc2c1=O: 19 µM
O=c1c2ccccc2sn1/N=C/c1ccccc1[N+](=O)[O-]: 68 µM
Cc1ccc2sn(/N=C/c3ccccc3Cl)c(=O)c2c1: > 100 µM
O=c1c2ccccc2sn1/N=C/c1ccc([N+](=O)[O-])cc1: > 100 µM

Quick one: give me CC50 at 96 h for each item below, same order please.
1. Cc1ccc2sn(/N=C/c3ccc([N+](=O)[O-])cc3)c(=O)c2c1
2. O=c1c2ccccc2sn1/N=C/c1ccc(O)c(O)c1
3. Cc1ccc2sn(/N=C/C=C/c3ccccc3)c(=O)c2c1
4. COc1cc(/C=N/n2sc3ccccc3c2=O)ccc1O
5. COc1ccc(/C=N/n2sc3ccc(C)cc3c2=O)cc1
6. COc1cc(/C=N/n2sc3ccc(C)cc3c2=O)ccc1O
7. CCCCCCCCCCC/C=N/n1sc2ccccc2c1=O
8. Cc1ccc2sn(/N=C/c3ccccc3O)c(=O)c2c1

1: > 100 µM; 2: 44 µM; 3: 19 µM; 4: 15 µM; 5: 55 µM; 6: 16 µM; 7: 17 µM; 8: 30 µM

Quick one: give me CC50 at 96 h for each item below, same order please.
1. O=c1c2ccccc2sn1/N=C/c1ccc(O)cc1
2. Cc1ccc2sn(/N=C/c3ccccc3F)c(=O)c2c1

["18 µM", "18 µM"]

Quick one: give me CC50 at 96 h for each item below, same order please.
1. Cc1ccc2sn(/N=C/c3ccc4c(c3)OCO4)c(=O)c2c1
2. Cc1ccc2sn(/N=C/c3ccc([N+](=O)[O-])cc3[N+](=O)[O-])c(=O)c2c1
3. Cc1ccc2sn(/N=C/c3ccco3)c(=O)c2c1
4. O=c1c2ccccc2sn1/N=C/C=C/c1ccccc1

> 100 µM
> 100 µM
18 µM
18 µM

Quick one: give me CC50 at 96 h for each item below, same order please.
1. O=c1c2ccccc2sn1/N=C/c1ccc([N+](=O)[O-])cc1[N+](=O)[O-]
2. O=c1c2ccccc2sn1/N=C/c1cccc(Cl)c1
3. Cc1ccc2sn(/N=C/c3ccc(F)cc3)c(=O)c2c1
4. Cc1ccc2sn(/N=C/c3cccc(F)c3)c(=O)c2c1
5. Cc1ccc2sn(/N=C/c3ccc(Cl)cc3)c(=O)c2c1
6. Cc1ccc2sn(/N=C/c3ccc(O)cc3)c(=O)c2c1

1: > 100 µM; 2: > 100 µM; 3: 15 µM; 4: 30 µM; 5: 57 µM; 6: 23 µM
